# Measurement Target: human SSTR2 (Homo sapiens, UniProt P30874)
# Sequence (P30874 whole entry): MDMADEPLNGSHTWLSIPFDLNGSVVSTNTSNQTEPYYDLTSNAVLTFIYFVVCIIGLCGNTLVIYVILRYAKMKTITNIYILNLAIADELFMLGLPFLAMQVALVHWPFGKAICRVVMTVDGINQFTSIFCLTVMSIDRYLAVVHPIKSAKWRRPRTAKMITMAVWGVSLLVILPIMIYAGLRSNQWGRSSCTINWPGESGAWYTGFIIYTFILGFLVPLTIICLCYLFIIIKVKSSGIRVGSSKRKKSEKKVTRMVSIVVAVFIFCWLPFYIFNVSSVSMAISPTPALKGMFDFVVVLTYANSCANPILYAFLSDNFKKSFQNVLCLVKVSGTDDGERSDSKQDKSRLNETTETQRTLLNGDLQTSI
Below: a set of entries, each annotated with reported pKi.
When answering, recall that pKi equals minus log10 of the concentration in mol/L, and write that number alone.

Example entries and their recorded answers appear below.
[[record]]
compound = "COc1cc2cc(c1Cl)N(C)C(=O)C[C@H](OC(=O)[C@H](C)N(C)C(=O)CCC(C)(C)SSC[C@H](NC(=O)[C@@H]1CSSC[C@H](NC(=O)[C@H](N)Cc3ccccc3)C(=O)N[C@@H](Cc3ccc(O)cc3)C(=O)N[C@H](Cc3c[nH]c4ccccc34)C(=O)N[C@@H](CCCCN)C(=O)N[C@@H]([C@@H](C)O)C(=O)N1)C(N)=O)[C@]1(C)O[C@H]1[C@H](C)[C@@H]1C[C@@](O)(NC(=O)O1)[C@H](OC)/C=C/C=C(\\C)C2 [Conjugate 4]"
measurement_target = "human SSTR2 (Homo sapiens, UniProt P30874)"
reported = 10.12

[[record]]
compound = "COc1cc2cc(c1Cl)N(C)C(=O)C[C@H](OC(=O)[C@H](C)N(C)C(=O)CCSSC(C)(C)[C@H](NC(=O)[C@@H]1CSSC[C@H](NC(=O)[C@@H](Cc3ccccc3)NC(=O)NCc3ccc(C(F)(F)F)cc3)C(=O)N[C@@H](Cc3ccc(O)cc3)C(=O)N[C@H](Cc3c[nH]c4ccccc34)C(=O)N[C@@H](CCCCN)C(=O)N[C@@H]([C@@H](C)O)C(=O)N1)C(N)=O)[C@]1(C)O[C@H]1[C@H](C)[C@@H]1C[C@@](O)(NC(=O)O1)[C@H](OC)/C=C/C=C(\\C)C2 [Conjugate 15]"
measurement_target = "human SSTR2 (Homo sapiens, UniProt P30874)"
reported = 10.11

[[record]]
compound = "COC(=O)N[C@H](Cc1ccccc1)C(=O)N[C@H]1CSSC[C@@H](C(=O)N[C@@H](CSSCCC(=O)N(C)[C@@H](C)C(=O)O[C@H]2CC(=O)N(C)c3cc(cc(OC)c3Cl)C/C(C)=C/C=C/[C@@H](OC)[C@@]3(O)C[C@H](OC(=O)N3)[C@@H](C)[C@@H]3O[C@@]23C)C(N)=O)NC(=O)[C@H]([C@@H](C)O)NC(=O)[C@H](CCCCN)NC(=O)[C@@H](Cc2c[nH]c3ccccc23)NC(=O)[C@H](Cc2ccc(O)cc2)NC1=O [Conjugate 35]"
measurement_target = "human SSTR2 (Homo sapiens, UniProt P30874)"
reported = 10.62


Read off the recorded pKi for COc1cc2cc(c1Cl)N(C)C(=O)C[C@H](OC(=O)[C@H](C)N(C)C(=O)CCSSC[C@H](NC(=O)CC[C@H](NC(=O)[C@@H]1CSSC[C@H](NC(=O)[C@H](N)Cc3ccccc3)C(=O)N[C@@H](Cc3ccc(O)cc3)C(=O)N[C@H](Cc3c[nH]c4ccccc34)C(=O)N[C@@H](CCCCN)C(=O)N[C@@H]([C@@H](C)O)C(=O)N1)C(N)=O)C(N)=O)[C@]1(C)O[C@H]1[C@H](C)[C@@H]1C[C@@](O)(NC(=O)O1)[C@H](OC)/C=C/C=C(\C)C2 [Conjugate 46]
10.35

Read off the recorded pKi for COc1cc2cc(c1Cl)N(C)C(=O)C[C@H](OC(=O)[C@H](C)N(C)C(=O)CCSSC[C@H](NC(=O)[C@@H]1CSSC[C@H](NC(=O)[C@@H](Cc3ccccc3)NC(C)=O)C(=O)N[C@@H](Cc3ccc(O)cc3)C(=O)N[C@H](Cc3c[nH]c4ccccc34)C(=O)N[C@@H](CCCCN)C(=O)N[C@@H]([C@@H](C)O)C(=O)N1)C(N)=O)[C@]1(C)O[C@H]1[C@H](C)[C@@H]1C[C@@](O)(NC(=O)O1)[C@H](OC)/C=C/C=C(\C)C2 [Conjugate 27]
9.82

Read off the recorded pKi for COc1cc2cc(c1Cl)N(C)C(=O)C[C@H](OC(=O)[C@H](C)N(C)C(=O)CCSSC[C@@H](NC(=O)[C@@H]1CSSC[C@H](NC(=O)[C@@H](Cc3ccccc3)NC(=O)C(F)(F)F)C(=O)N[C@@H](Cc3ccc(O)cc3)C(=O)N[C@H](Cc3c[nH]c4ccccc34)C(=O)N[C@@H](CCCCN)C(=O)N[C@@H]([C@@H](C)O)C(=O)N1)C(N)=O)[C@]1(C)O[C@H]1[C@H](C)[C@@H]1C[C@@](O)(NC(=O)O1)[C@H](OC)/C=C/C=C(\C)C2 [Conjugate 32]
9.09

Read off the recorded pKi for COc1cc2cc(c1Cl)N(C)C(=O)C[C@H](OC(=O)[C@H](C)N(C)C(=O)CCSSC[C@H](NC(=O)[C@@H]1CSSC[C@H](NC(=O)[C@@H](Cc3ccccc3)NCc3ccccc3)C(=O)N[C@@H](Cc3ccc(O)cc3)C(=O)N[C@H](Cc3c[nH]c4ccccc34)C(=O)N[C@@H](CCCCN)C(=O)N[C@@H]([C@@H](C)O)C(=O)N1)C(N)=O)[C@]1(C)O[C@H]1[C@H](C)[C@@H]1C[C@@](O)(NC(=O)O1)[C@H](OC)/C=C/C=C(\C)C2 [Conjugate 43]
10.12

Read off the recorded pKi for COc1cc2cc(c1Cl)N(C)C(=O)C[C@H](OC(=O)[C@H](C)N(C)C(=O)CCSSC(C)(C)[C@H](NC(=O)[C@@H]1CSSC[C@H](NC(=O)[C@@H](Cc3ccccc3)NC(=O)NCc3ccccc3)C(=O)N[C@@H](Cc3ccc(O)cc3)C(=O)N[C@H](Cc3c[nH]c4ccccc34)C(=O)N[C@@H](CCCCN)C(=O)N[C@@H]([C@@H](C)O)C(=O)N1)C(N)=O)[C@]1(C)O[C@H]1[C@H](C)[C@@H]1C[C@@](O)(NC(=O)O1)[C@H](OC)/C=C/C=C(\C)C2 [Conjugate 7]
10.60

Read off the recorded pKi for CCNC(=O)N[C@H](Cc1ccccc1)C(=O)N[C@H]1CSSC[C@@H](C(=O)N[C@@H](CSSCCC(=O)N(C)[C@@H](C)C(=O)O[C@H]2CC(=O)N(C)c3cc(cc(OC)c3Cl)C/C(C)=C/C=C/[C@@H](OC)[C@@]3(O)C[C@H](OC(=O)N3)[C@@H](C)[C@@H]3O[C@@]23C)C(=O)NCC)NC(=O)[C@H]([C@@H](C)O)NC(=O)[C@H](CCCCN)NC(=O)[C@@H](Cc2c[nH]c3ccccc23)NC(=O)[C@H](Cc2ccc(O)cc2)NC1=O [Conjugate 30]
10.15
